Test system: HPPD polypeptides
Experiment: coupled HPPD activity assay: turnover and residual turnover in crude extracts
Assay type: biochemical, Pseudomonas fluorescens
Conditions: 100 μM Cmpd. 1; signal change with inhibitor divided by signal change without inhibitor
Experimental Endpoint: Residual turnover [%] (%)
Express the result in % but write the number alone.

Record excerpt, results attached:
69 (protein, mutant HPPD polypeptide) MADLYENPMGLMGFEFIEFASPTPGTLEPIFEIMGFTKVATHRSKNVHLYRQGEINLILNNEPNSIASYFAAEHGPSVCGMAFRVKDSQKAYNRALELGAQPIHIDTGPMELNLPAIKGIGGAPLYLIDRFGEGSSIYDIDFVYLEGVERNPVGAGLKVIDHLTHNVYRGRMVYWANFYEKLFNFREARYFDIKGEYTGLTSKAMSAPDGMIRIPLNEESSKGAGQIEEFLMQFNGEGIQHVAFLTDDLVKTWDALKKIGMRFMTAPADSYYEMLEGRLPDHGEPVDQLQARGILLDGSSVEGDKRLLLQIFSERLMGPVFFEFIQRKGDDGFGPHSFKVLFEQMERDQVRRGVLTAD | 66
59 (protein, mutant HPPD polypeptide) MADLYENPMGLMGFEFIEFASPTPGTLEPIFEIMGFTKVATHRSKNVHLYRQGEINLILNNEPNSIASYFAAEHGPSVCGMAFRVKDSQKAYNRALELGAQPIHIDTGPMELNLPAIKGIGGAPLYLIDRFGEGSSIYDIDFVYLEGVERNPVGAGLKVIDHLTHNVYRGRMVYWANFYEKLFNFREARYFDIKGEYTGLTSKAMSAPDGMIRIPLNEESSKGAGQIEEFLMQFNGEGIQHVAFLTDDLVKTWDALKKIGMRFMTAPADSYYEMLEGRLPDHGEPVDQLQARGILLDGSSVEGDKRLLLQIFSETLMGPVFFEFIQRKGDDGFGPDSFKVLFEQKERDQVRRGVLTAD | 56
47 (protein, mutant HPPD polypeptide) MADLYENPMGLMGFEFIEFASPTPGTLEPIFEIMGFTKVATHRSKNVHLYRQGEINLILNNEPNSIASYFAAEHGPSVCGMAFRVKDSQKAYNRALELGAQPIHIDTGPMELNLPAIKGIGGAPLYLIDRFGEGSSIYDIDFVYLEGVERNPVGAGLKVIDHLTHNVYRGRMVYWANFYEKLFNFREARYFDIKGEYTGLTSKAMSAPDGMIRIPLNEESSKGAGQIEEFLMQFNGEGIQHVAFLTDDLVKTWDALKKIGMRFMTAPADNYYEMLEGRLPDHGEPVDQLQARGILLDGSSVEGDKRLLLQIFSETLMGPVFFEFIQRKGDDGFGPHSFKVLFEQMERDQVRRGVLTAD | 53

Switching to the query record.
Using the record for 49 (protein, mutant HPPD polypeptide) MADLYENPMGLMGFEFIEFASPTPGTLEPIFEIMGFTKVATHRSKNVHLYRQGEINLILNNEPNSIASYFAAEHGPSVCGMAFRVKDSQKAYNRALELGAQPIHIDTGPMELNLPAIKGIGGAPLYLIDRFGEGSSIYDIDFVYLEGVERNPVGAGLKVIDHLTHNVYRGRMVYWANFYEKLFNFREARYFDIKGEYTGLTSKAMSAPDGMIRIPLNEESSKGAGQIEEFLMQFNGEGIQHVAFLTDDLVKTWDALKKIGMRFMTAPPDNYYEMLEGRLPDHGEPVDQLQARGILLDGSSVEGDKRLLLQIFSETLMGPVFFEFIQRKGDDGFGPHSFKVLFEQMERDQVRRGVLTAD , report its Residual turnover [%]. 33
